Test system: SMMC-7721
protocol.details: Cytotoxicity against human SMMC7721 cells assessed as decrease in cell viability after 48 hrs by MTT assay
Format: functional, cell-based
experimental.conditions: SMMC-7721, 48 h
pIC50: −log10 of the molar value.
readout: pIC50

Here are 5 compounds together with their reported answers.
>  <smiles.repr>
C/C=C1/CN(C)[C@H]2Cc3c([nH]c4ccccc34)[C@H](c3cc4c(cc3OC)c3c5n4C[C@H]4C[C@@H](CC)[C@@H](NCC3)[C@@]5(C(=O)OC)C4)C[C@H]1[C@]2(CO)C(=O)OC

>  <readout>
pIC50

>  <result>
4.83

$$$$
>  <smiles.repr>
CC[C@]1(C(=O)O)C[C@@H](C(=O)OC)C2=Nc3cc(OC)ccc3[C@@]23CCN(CCO)[C@H]13

>  <readout>
pIC50

>  <result>
< 4.00

$$$$
>  <smiles.repr>
C/C=C1/CN(C)[C@H]2Cc3c([nH]c4ccccc34)[C@H](c3c(OC)ccc4c5c([nH]c34)[C@@]3(C(=O)OC)C[C@H]4C[C@H](CC)[C@@H]3N(CC5)C4)C[C@H]1[C@]2(CO)C(=O)OC

>  <readout>
pIC50

>  <result>
4.90

$$$$
>  <smiles.repr>
COC(=O)[C@@]12C[C@@H]3C[C@H]([C@H](C)O)[C@H]1NCCc1c2n(c2cc(OC)ccc12)C3

>  <readout>
pIC50

>  <result>
< 4.00

$$$$
>  <smiles.repr>
C/C=C1/CN(C)[C@H]2Cc3c([nH]c4ccccc34)[C@H](c3cc4c5c([nH]c4cc3OC)[C@@]3(C(=O)OC)C[C@H]4C[C@H](CC)[C@H]3N(CC5)C4)C[C@H]1[C@]2(CO)C(=O)OC

>  <readout>
pIC50

>  <result>
5.33

$$$$

get_value(item= CC[C@]1(C(=O)O)C[C@@H](C(=O)OC)C2=Nc3cc(OC)ccc3[C@@]23CCN(CCO)[C@@H]13 , readout=pIC50) returns < 4.00

Entry under test: CC[C@@]12C[C@@H](C(=O)OC)C3=Nc4cc(OC)ccc4[C@@]34CCN(CCOC1=O)[C@@H]24 . Its pIC50 was < 4.00

The recorded pIC50 for entry C/C=C1/CN(C)[C@H]2Cc3c([nH]c4ccccc34)[C@H](c3cc4c5c6n(c4cc3OC)C[C@H]3C[C@@H](CC)[C@@H](NCC5)[C@@]6(C(=O)OC)C3)C[C@H]1[C@]2(CO)C(=O)OC equals 5.17

The compound identified as CC[C@H]1C[C@@H]2Cn3c4c(c5ccc(OC)cc53)CCN[C@H]1[C@@]4(C(=O)OC)C2 registered its pIC50 at < 4.00

pIC50 in this record for CC[C@H]1C[C@H]2C[C@@]3(C(=O)OC)c4c(c5ccc(OC)cc5n4C2=O)CCN[C@H]13 : < 4.00

The recorded pIC50 for COC(=O)[C@@]12C[C@@H]3C[C@H]([C@H](C)O)[C@H]1NCCc1c2n(c2ccccc12)C3 is < 4.00

Field pIC50 (entry CC[C@@]12C[C@@H](C(=O)OC)C3=Nc4cc(OC)ccc4[C@@]34CCN(CCOC1=O)[C@H]24 ) reads < 4.00
